- target.of.assay: rat P2X7 (Rattus norvegicus, UniProt Q64663)
- Sequence (Q64663 whole entry): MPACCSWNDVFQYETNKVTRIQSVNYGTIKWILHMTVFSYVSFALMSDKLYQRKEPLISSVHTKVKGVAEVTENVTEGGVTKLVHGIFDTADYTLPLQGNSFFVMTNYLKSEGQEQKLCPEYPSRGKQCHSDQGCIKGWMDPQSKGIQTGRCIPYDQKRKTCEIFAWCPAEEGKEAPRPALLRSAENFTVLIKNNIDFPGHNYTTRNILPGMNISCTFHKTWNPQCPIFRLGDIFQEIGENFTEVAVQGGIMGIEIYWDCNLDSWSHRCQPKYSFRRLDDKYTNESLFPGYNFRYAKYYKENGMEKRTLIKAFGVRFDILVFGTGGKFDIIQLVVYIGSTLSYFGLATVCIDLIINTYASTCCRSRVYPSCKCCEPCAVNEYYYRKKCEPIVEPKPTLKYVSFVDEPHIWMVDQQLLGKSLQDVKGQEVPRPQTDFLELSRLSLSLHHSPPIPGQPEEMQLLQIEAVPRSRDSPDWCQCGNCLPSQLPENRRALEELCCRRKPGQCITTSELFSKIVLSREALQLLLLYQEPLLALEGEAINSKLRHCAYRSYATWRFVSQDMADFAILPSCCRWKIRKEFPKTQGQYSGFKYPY
- test.description: Calcium influx (Fura-2/AM) inhibition assay, BzATP-activated
- run.conditions: Rat isoform, P2X7-HEK293, [BzATP] 100 μM
result.type: IC50
Remember to quote the unit after the number.

Given N#CN=C(NCc1ccc(F)cc1)Nc1cccc2ncccc12 [EFB] , respond with its IC50.
7.24 µM

====

- target.of.assay: human P2X7 (Homo sapiens)
- Sequence (Q99572 1-595): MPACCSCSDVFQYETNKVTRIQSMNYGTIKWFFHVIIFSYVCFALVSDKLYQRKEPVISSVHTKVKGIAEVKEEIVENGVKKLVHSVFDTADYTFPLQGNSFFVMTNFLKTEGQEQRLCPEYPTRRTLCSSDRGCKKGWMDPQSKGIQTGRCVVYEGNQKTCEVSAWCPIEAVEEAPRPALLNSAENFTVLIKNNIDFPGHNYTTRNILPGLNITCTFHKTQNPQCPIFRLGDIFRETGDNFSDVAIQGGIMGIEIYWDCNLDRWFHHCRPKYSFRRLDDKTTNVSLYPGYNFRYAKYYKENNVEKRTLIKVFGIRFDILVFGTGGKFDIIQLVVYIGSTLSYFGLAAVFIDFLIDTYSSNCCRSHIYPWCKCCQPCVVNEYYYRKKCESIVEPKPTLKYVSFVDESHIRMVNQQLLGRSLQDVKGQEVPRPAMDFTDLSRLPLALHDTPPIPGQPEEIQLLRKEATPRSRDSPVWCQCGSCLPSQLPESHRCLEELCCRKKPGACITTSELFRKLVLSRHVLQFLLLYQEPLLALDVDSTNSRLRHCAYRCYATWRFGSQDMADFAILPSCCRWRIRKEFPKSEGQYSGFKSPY
- test.description: Calcium influx (Fura-2/AM) inhibition assay, BzATP-activated
- run.conditions: Human isoform, P2X7-HEK293, [BzATP] 100 μM
result.type: IC50

Please tell me the measured IC50 for COc1ccc(CC(=O)NC(NC(=NC#N)Nc2cccc3ncccc23)C(C)(C)C)cc1OC (stereo not shown) [A-740003, reference compound] ; system: human P2X7 (Homo sapiens).
66.1 nM

====

- target.of.assay: mouse P2X7 (Mus musculus)
- Sequence (Q9Z1M0 whole entry): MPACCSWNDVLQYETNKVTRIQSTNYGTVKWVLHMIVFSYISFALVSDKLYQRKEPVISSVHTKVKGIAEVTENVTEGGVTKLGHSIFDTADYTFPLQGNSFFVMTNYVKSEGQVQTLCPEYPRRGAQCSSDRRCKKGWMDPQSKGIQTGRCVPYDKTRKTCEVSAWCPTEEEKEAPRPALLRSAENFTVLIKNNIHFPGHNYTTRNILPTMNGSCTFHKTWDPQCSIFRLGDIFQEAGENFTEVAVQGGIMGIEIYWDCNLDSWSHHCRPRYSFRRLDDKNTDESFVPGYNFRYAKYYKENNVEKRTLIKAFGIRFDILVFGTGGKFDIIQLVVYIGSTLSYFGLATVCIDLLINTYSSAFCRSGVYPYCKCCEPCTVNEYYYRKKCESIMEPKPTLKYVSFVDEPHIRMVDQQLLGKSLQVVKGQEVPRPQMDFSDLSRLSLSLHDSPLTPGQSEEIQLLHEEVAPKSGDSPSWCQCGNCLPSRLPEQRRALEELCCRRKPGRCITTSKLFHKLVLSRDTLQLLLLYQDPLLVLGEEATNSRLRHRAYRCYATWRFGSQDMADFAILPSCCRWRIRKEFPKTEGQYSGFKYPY
- test.description: Calcium influx (Fura-2/AM) inhibition assay, BzATP-activated, B16 cells
- run.conditions: Mouse isoform, Cheng–Prusoff from pIC50 assuming competitive inhibition, BzATP 200 μM
result.type: pKi
pKi is defined as minus the log10 of a concentration measured in mol/L.

# compound, pKi
measured = [
    ("N#CN=C(NCc1ccc(F)cc1)Nc1cccc2ncccc12", 6.26),
]

Next up:
Given COc1ccc(CC(=O)NC(NC(=NC#N)Nc2cccc3ncccc23)C(C)(C)C)cc1OC (centres unmarked) [A-740003, reference compound] , respond with its pKi.
7.01

Origin of measurements: paper PMC5378566
